# System: Diabrotica balteata
# protocol summary: Diabrotica balteata spray test
# Type: in vivo
# condition details: 168 h, 100 g/ha (=32 μg/cavity), beetle larvae on wheat, after 7 days, read-out: efficacy (wheat plant growth)
Each entry below carries its reported pest or weed control at 100 g/ha.

molecule: CNc1nc(-c2ccc(NC(=O)N=C3SCC(=O)N3c3cc(OC)ccc3C(C)C)cc2)nn1-c1ccc(OC(F)(F)C(F)(F)F)cc1
assay target: Diabrotica balteata
pest or weed control at 100 g/ha / %: 100
--
molecule: CC(=O)Nc1cc(-c2ccc(C=NN=C3SCC(=O)N3c3ccccc3C(C)C)cc2)nn1-c1ccc(OC(F)(F)F)cc1
assay target: Diabrotica balteata
pest or weed control at 100 g/ha / %: 80
--
molecule: CC(C)c1ccccc1NC(=S)NN=Cc1ccc(-c2nc(NC3COC3)n(-c3ccc(OC(F)(F)F)cc3)n2)cc1
assay target: Diabrotica balteata
pest or weed control at 100 g/ha / %: 100
--
molecule: CC(C)c1ccccc1N1C(=O)CSC1=NC(=O)Nc1ccc(-c2nc(NC3CCOC3)n(-c3ccc(OC(F)(F)F)cc3)n2)cc1 (stereo not shown)
assay target: Diabrotica balteata
pest or weed control at 100 g/ha / %: 100
--
molecule: C=CCNc1nc(-c2ccc(C=NNC(=S)Nc3ccccc3C(C)C)cc2)nn1-c1ccc(OC(F)(F)F)cc1
assay target: Diabrotica balteata
pest or weed control at 100 g/ha / %: 100
--
molecule: CCOCCNc1nc(-c2ccc(NC(=O)N=C3SCC(=O)N3c3ccccc3C(C)C)cc2)nn1-c1ccc(OC(F)(F)F)cc1
assay target: Diabrotica balteata
pest or weed control at 100 g/ha / %: 80
--
molecule: CNc1nc(-c2ccc(C=NNC(=S)Nc3ccccc3C(C)C)cc2F)nn1-c1ccc(OC(F)(F)F)cc1
assay target: Diabrotica balteata
pest or weed control at 100 g/ha / %: 100

----------
Collected pest or weed control at 100 g/ha values appear next to each entry.
# Tested on: Diabrotica balteata
# protocol summary: Diabrotica balteata spray test
# Assay type: in vivo
# condition details: 168 h, 100 g/ha (=32 μg/cavity), beetle larvae on wheat, after 7 days, read-out: efficacy (wheat plant growth)

item smiles: CNc1nc(-c2ccc(C=NN=C3SCC(=O)N3c3ccccc3C(C)C)cc2)nn1-c1ccc(OC(F)(F)C(F)(F)F)cc1
pest or weed control at 100 g/ha, %: 100
//
item smiles: CC(C)c1ccccc1NC(=S)NN=Cc1ccc(-c2nc(NCCS(C)(=O)=O)n(-c3ccc(OC(F)(F)F)cc3)n2)cc1
pest or weed control at 100 g/ha, %: 100
//
item smiles: CNc1nc(-c2ccc(C=NN=C3SCC(=O)N3c3ccccc3C(C)C)cc2Cl)nn1-c1ccc(OC(F)(F)F)cc1
pest or weed control at 100 g/ha, %: 100

----------
# Test system: Diabrotica balteata
# protocol summary: Diabrotica balteata spray test
# Assay type: in vivo
# condition details: 168 h, 100 g/ha (=32 μg/cavity), beetle larvae on wheat, after 7 days, read-out: efficacy (wheat plant growth)
pest or weed control at 100 g/ha by entry:

item smiles: CC(C)c1ccccc1N1C(=O)CSC1=NN=Cc1ccc(-c2nc(NCCS(C)(=O)=O)n(-c3ccc(OC(F)(F)F)cc3)n2)cc1
pest or weed control at 100 g/ha [%]: 100
--
item smiles: CNc1nc(-c2ccc(C=NN=C3SCC(=O)N3c3cc(OC)ccc3C(C)C)cc2)nn1-c1ccc(OC(F)(F)F)cc1
pest or weed control at 100 g/ha [%]: 100
--
item smiles: CC(C)c1ccccc1NC(=S)NN=Cc1ccc(-c2nc(NC3CSC3)n(-c3ccc(OC(F)(F)C(F)(F)F)cc3)n2)cc1
pest or weed control at 100 g/ha [%]: 100
--
item smiles: CC(C)c1ccccc1NC(=S)NN=Cc1ccc(-c2nc(N)n(-c3ccc(OC(F)(F)C(F)(F)F)cc3)n2)cc1
pest or weed control at 100 g/ha [%]: 100
--
item smiles: CCOC(CNc1nc(-c2ccc(C=NN=C3SCC(=O)N3c3ccccc3C(C)C)cc2)nn1-c1ccc(OC(F)(F)F)cc1)OCC
pest or weed control at 100 g/ha [%]: 80
--
item smiles: CC(C)c1ccccc1N1C(=O)CSC1=NC(=O)Nc1ccc(-c2nc(N)n(-c3ccc(OC(F)(F)C(F)(F)F)cc3)n2)cc1
pest or weed control at 100 g/ha [%]: 80
--
item smiles: CC(C)c1ccccc1N1C(=O)CSC1=NC(=O)Nc1ccc(-c2nc(NC(=O)C3CC3)n(-c3ccc(OC(F)(F)F)cc3)n2)cc1
pest or weed control at 100 g/ha [%]: 80
--
item smiles: CC(C)c1ccccc1N1C(=O)CSC1=NN=Cc1ccc(-c2nc(N)n(-c3ccc(OC(F)(F)F)cc3)n2)cc1
pest or weed control at 100 g/ha [%]: 100
--
item smiles: CNc1nc(-c2ccc(C=NNC(=S)Nc3ccccc3C(C)C)cc2Cl)nn1-c1ccc(OC(F)(F)F)cc1
pest or weed control at 100 g/ha [%]: 100
--
item smiles: CNc1nc(-c2ccc(C=NN=c3scc(C)n3-c3ccccc3C(C)C)cc2)nn1-c1ccc(OC(F)(F)F)cc1
pest or weed control at 100 g/ha [%]: 100
--
item smiles: CNc1nc(-c2ccc(C=NN=c3scc(C)n3-c3ccccc3C(C)C)cc2)nn1-c1ccc(OC(F)(F)C(F)(F)F)cc1
pest or weed control at 100 g/ha [%]: 100
--
item smiles: CC(C)c1ccccc1NC(=S)NN=Cc1ccc(-c2nc(NC3CC3)n(-c3ccc(OC(F)(F)F)cc3)n2)cc1
pest or weed control at 100 g/ha [%]: 100
--
item smiles: CNc1nc(-c2ccc(C=NNC(=S)Nc3cc(C)ccc3C(C)C)cc2)nn1-c1ccc(OC(F)(F)F)cc1
pest or weed control at 100 g/ha [%]: 100

----------
Parameter: pest or weed control at 100 g/ha. Scope: all listed entries.
# Tested on: Diabrotica balteata
# protocol summary: Diabrotica balteata spray test
# Assay type: in vivo
# condition details: 168 h, 100 g/ha (=32 μg/cavity), beetle larvae on wheat, after 7 days, read-out: efficacy (wheat plant growth)

compound: CC(C)Nc1nc(-c2ccc(C=NNC(=S)Nc3ccccc3C(C)C)cc2)nn1-c1ccc(OC(F)(F)F)cc1 [Compound I-052]
pest or weed control at 100 g/ha, %: 100
--
compound: CC(C)c1ccccc1N1C(=O)CSC1=NN=Cc1ccc(-c2nc(N)n(-c3ccc(OC(F)(F)C(F)(F)F)cc3)n2)cc1 [Compound I-065]
pest or weed control at 100 g/ha, %: 100
--
compound: CC(=O)Nc1nc(-c2ccc(C=NN=C3SCC(=O)N3c3ccccc3C(C)C)cc2)nn1-c1ccc(OC(F)(F)C(F)(F)F)cc1 [Compound I-099]
pest or weed control at 100 g/ha, %: 80
--
compound: CNc1nc(-c2c(F)cc(C=NN=C3SCC(=O)N3c3ccccc3C(C)C)cc2F)nn1-c1ccc(OC(F)(F)F)cc1 [Compound I-122]
pest or weed control at 100 g/ha, %: 100
--
compound: CCOC(=O)C(=O)Nc1nc(-c2ccc(NC(=O)N=C3SCC(=O)N3c3ccccc3C(C)C)cc2)nn1-c1ccc(OC(F)(F)F)cc1 [Compound I-037]
pest or weed control at 100 g/ha, %: 80
--
compound: CC(C)c1ccccc1N1C(=O)CSC1=NC(=O)Nc1ccc(-c2nc(NC(=O)C(F)F)n(-c3ccc(OC(F)(F)F)cc3)n2)cc1 [Compound I-038]
pest or weed control at 100 g/ha, %: 80

This collection of values is drawn from patent US20220289691A1.
